test system: PE biosynthesis in P. falciparum-infected erythrocytes; experiment: Effect on [3H]-ethanolamine incorporation into PL; format: cell-based; conditions: read-out: PE50; schizont stage; 2 µM [3H]-ethanolamine, 3 h

MOLECULE: Cc1c(CCO)sc[n+]1CCCCCCCCCCCC[n+]1csc(CCO)c1C.[Br-].[Br-] [albitiazolium]
IC50: > 1000 µM

---

molecular target: parasite choline transporter (poly-specific cation transporter); test: Choline entry into isolated; conditions: read-out: Ki on choline entry into parasites; Lineweaver–Burk
pKi: −log10 of the molar value.

QUERY SMILES: Cc1c(CCO)sc[n+]1CCCCCCCCCCCC[n+]1csc(CCO)c1C.[Br-].[Br-]
pKi: 6.28

---

target: erythrocyte choline carrier; experiment: Carrier-mediated choline entry into IRBC in the presence of 150 µM furosemide; conditions: read-out: Ki on choline entry; 150 µM furosemide; Lineweaver–Burk
pKi: −log10 of the molar value.

QUERY SMILES: Cc1c(CCO)sc[n+]1CCCCCCCCCCCC[n+]1csc(CCO)c1C.[Br-].[Br-]
pKi: 5.51

---

tested on: PE biosynthesis in P. falciparum-infected erythrocytes; experiment: Effect on [3H]-ethanolamine incorporation into PL; type: cell-based; details: Plasmodium falciparum, Erythrocyte, 3 h, read-out: PE50
EXPERIMENTAL READOUT: IC50

QUERY SMILES: Cc1c(CCO)sc[n+]1CCCCCCCCCCCC[n+]1csc(CCO)c1C.[Br-].[Br-]
SYSTEM NAME: PE biosynthesis in P. falciparum-infected erythrocytes
RESULT: > 1 mM
